System: H358 cells
run description: Cell activity experiment: activity test of H358 cells (MTT, 5 days)
Type: cell-based
study conditions: Homo sapiens, NCI-H358, 120 h, 5 days incubation, absorbance 492 nm
pIC50: −log10 of the molar value.
reported endpoint: pIC50

[a] C=CC(=O)N1CCN(c2nc(OC[C@@]34CCCN3C[C@H](F)C4)nc3cc(-c4cccc5cccc(Cl)c45)ccc23)C[C@@H]1CC#N
[b] C=C(F)C(=O)N1CCN(c2nc(OC[C@@H]3CCCN3C)nc3c(F)c(-c4ccc(F)c5c4CCCC5)ncc23)C[C@@H]1CC#N
[c] C=C(F)C(=O)N1CCN(c2nc(OCC34CCCN3CCC4)nc3nc(-c4cccc5cccc(Cl)c45)ccc23)C[C@@H]1CC#N
# descending pIC50 order for the listed compounds List labels; respect the requested ordering. a, c, b
(a: 8.49, c: 7.51, b: 7.00)

###

System: H358 cells
run description: Cell activity experiment: activity test of H358 cells (MTT, 5 days)
Type: cell-based
study conditions: Homo sapiens, NCI-H358, 120 h, 5 days incubation, absorbance 492 nm
Experimental: Example: Cell Activity Experiment 1. Cells: H358 purchased from Shanghai EK-Bioscience Biotechnology Co., Ltd. 2. Reagents: RPMI 1640 medium, Tryple, MTT (5 mg/mL), DMSO, and DPBS. 3. Instruments: an incubator at 37° C. and 5% CO2, a UTRAO microplate reader, a biosafety cabinet, a cell counting plate, and an Optec optical microscope. 4. Experimental consumables: 96-well plate Item No.: 3599, and 96-well round-bottomed dispensing plate. Experimental Steps of Activity Test of H358 Cells: 1. […]
reported endpoint: IC50 (nM)

INSERT INTO assay_data (compound, recorded_value) VALUES
  ('C=CC(=O)N1CC[C@@H]2[C@H]1CN2c1nc(OC[C@@]23CCCN2C[C@H](F)C3)nc2c(F)c(-c3cccc4c3CCCC4)ncc12', 3);

[A] C=CC(=O)N1CCN(c2nc(OC[C@@H]3CCCN3C)nc3c(F)c(-c4cccc5cccc(Cl)c45)ccc23)C[C@@H]1CC#N
[B] C=CC(=O)N1CCN(c2nc(OC[C@@]34CCCN3C[C@H](F)C4)nc3c(F)c(-c4cccc5c4C4CC4C5)ncc23)C[C@@H]1CC#N (stereo partly shown)
[C] C=CC(=O)N1CCN(c2nc(OCC34CCCN3CCC4)nc3cc(-c4cncc5cccc(Cl)c45)ccc23)C[C@@H]1CC#N
# rank by IC50, ascending (min first) List labels; respect the requested ordering. B, A, C
(B: 0.07 nM, A: 3.4 nM, C: 8 nM)

###

Test system: H358 cells
run description: Cell activity experiment: activity test of H358 cells (MTT, 5 days)
Format: cell-based
study conditions: Homo sapiens, NCI-H358, 120 h, 5 days incubation, absorbance 492 nm
reported endpoint: IC50 (µM)

INSERT INTO measurements (molecule, reported_endpoint, units_of_measure, recorded_value) VALUES
  ('C=CC(=O)N1CCN(c2nc(OC[C@@]34CCCN3C[C@H](F)C4)nc3c(F)c(-c4cccc5cccc(Cl)c45)c(Cl)cc23)C[C@@H]1CC#N', 'IC50', 'µM', 0.13),
  ('C=C(F)C(=O)N1CCN(C2=C(C#N)C(OCC34CCCN3CCC4)=NC3C=C(c4cccc5ccc(F)c(Cl)c45)C=CC23)C[C@@H]1CC#N (some centres unmarked)', 'IC50', 'µM', 0.12),
  ('C=CC(=O)N1CC[C@@H]2[C@H]1CN2c1nc(OCC23CCCN2CCC3)nc2c(F)c(-c3ccc(F)c4c3CCCC4)ncc12', 'IC50', 'µM', 0.01),
  ('C=CC(=O)N1CCN(c2nc(OC[C@@H]3CCCN3C)nc3c(F)c(-c4cccc5cccc(Cl)c45)c(F)cc23)C[C@@H]1CC#N', 'IC50', 'µM', 0.14),
  ('C=C(F)C(=O)N1CCN(c2nc(OC[C@@H]3CCCN3C)nc3c(F)c(-c4cccc5c4[C@H]4C[C@H]4C5)ncc23)C[C@@H]1CC#N', 'IC50', 'µM', 0.15);

[a] C=C(F)C(=O)N1CCN(c2nc(OC[C@@H]3CCCN3C)nc3cc(-c4cncc5c4CCCC5)ccc23)C[C@@H]1CC#N
[b] C=C(F)C(=O)N1CCN(c2nc(OCC34CCCN3CCC4)nc3c(F)c(-c4cccc5c4[C@@H]4C[C@@H]4C5)ncc23)C[C@@H]1CC#N
[c] C=CC(=O)N1CCN(c2nc(OC[C@@H]3CCCN3C)nc3cc(-c4cccc5cccc(Cl)c45)c(F)cc23)C[C@@H]1CC#N
[d] C=CC(=O)N1CC[C@@H]2[C@H]1CN2c1nc(OC[C@@H]2C[C@@H](F)CN2C)nc2c(F)c(-c3cncc4c3CCCC4)ncc12
# rank by IC50, ascending (min first) List labels; respect the requested ordering. b, d, a, c
(b: 0.009 µM, d: 0.016 µM, a: 0.08 µM, c: 0.158 µM)

[P] C=C(F)C(=O)N1CCN(c2nc(OC[C@@H]3CCCN3C)nc3c(F)c(-c4cccc5c4C4CC4C5)ncc23)C[C@@H]1CC#N (some centres unmarked)
[Q] C=C(F)C(=O)N1CCN(c2nc(OCC3(CN4CCCC4)CC3)nc3c(F)c(-c4cccc5c4C4CC4C5)ccc23)C[C@@H]1CC#N (single isomer, unassigned)
For the two items P and Q , which reports the higher IC50 value? // caller expects the label of the chosen entry P
(P: 0.16 µM, Q: 0.0072 µM)

###

Tested on: H358 cells
run description: Cell activity experiment: activity test of H358 cells (MTT, 5 days)
Format: cell-based
study conditions: Homo sapiens, NCI-H358, 120 h, 5 days incubation, absorbance 492 nm
pIC50: −log10 of the molar value.
reported endpoint: pIC50

Known pIC50 results, listed for orientation:
INSERT INTO measurements (compound, recorded_value) VALUES
  ('C=CC(=O)N1CC[C@@H]2[C@H]1CN2c1nc(OC[C@@]23CCCN2C[C@H](F)C3)nc2c(F)c(-c3cncc4c3CCCC4)ncc12 [Example 47]', 8.19),
  ('C=CC(=O)N1CCN(c2nc(OC[C@@H]3C[C@@H](F)CN3C)nc3c(F)c(-c4cccc5cccc(Cl)c45)ccc23)C[C@@H]1CC#N [Example 361]', 8.30);

[1] C=C(F)C(=O)N1CCN(c2nc(OCC34CCCN3C[C@H](F)C4)nc3cc(-c4cccc5ccc(F)c(Cl)c45)ccc23)C[C@@H]1CC#N (stereo partly shown) [Example 100]
[2] C=C(F)C(=O)N1CCN(c2nc(OC[C@@H]3CCCN3C)nc3c(F)c(-c4cccc5cccc(Cl)c45)ccc23)C[C@@H]1CC#N [Example 903]
For the two items 1 and 2 , which reports the higher pIC50 value? // caller expects the label of the chosen entry 2
(2: 9.15, 1: 8.22)
